Items are presented alongside their recorded log10 of Kb.
target: UniProtKB P16610; assay: Inhibition of eledoisin binding to NK-2 receptor in rat vas deferens; settings: read-out: pA2 (converted)
Sequence (P16610 whole entry): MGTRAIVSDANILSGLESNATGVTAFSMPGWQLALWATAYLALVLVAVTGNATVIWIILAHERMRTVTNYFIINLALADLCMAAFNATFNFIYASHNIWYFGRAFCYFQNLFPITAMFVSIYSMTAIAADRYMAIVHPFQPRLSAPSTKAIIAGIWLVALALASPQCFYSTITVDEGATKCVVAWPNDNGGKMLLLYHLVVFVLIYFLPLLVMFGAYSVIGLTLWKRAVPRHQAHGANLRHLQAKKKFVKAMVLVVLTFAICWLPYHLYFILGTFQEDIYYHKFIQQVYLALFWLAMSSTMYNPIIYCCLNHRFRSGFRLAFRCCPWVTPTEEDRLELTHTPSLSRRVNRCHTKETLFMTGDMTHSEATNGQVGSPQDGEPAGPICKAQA
Where a SMILES comes first, the peptide text is derived from it.
Heads up: the numbers are on a log10 scale; they represent Kb in µM.

Q: What value of measured log10 of Kb is listed for CSCC[C@@H]1NC(=O)[C@H](CC(C)C)N2C=C[C@@H](NC(=O)[C@H](Cc3ccccc3)NC(=O)[C@](C)(c3cccc4ccccc34)NC(=O)[C@H](CCC(N)=O)NC1=O)C2=O ?
Result: 0.40

Q: # repeat for CSCC[C@@H]1NC(=O)[C@H](CC(C)C)NC(=O)[C@H]2CCCN2C(=O)[C@H](Cc2ccccc2)NC(=O)[C@H](Cc2c[nH]c3ccccc23)NC(=O)[C@H](CCC(N)=O)NC1=O
Result: 1.30

Q: # repeat for CSCC[C@@H]1NC(=O)[C@H](CC(C)C)NC(=O)[C@@H]2CCCN2C(=O)[C@H](Cc2ccccc2)NC(=O)[C@H](Cc2c[nH]c3ccccc23)NC(=O)[C@H](CCC(N)=O)NC1=O
Result: 1.20

Q: # repeat for CSCC[C@@H]1NC(=O)[C@H](CC(C)C)N2C=C[C@@H](NC(=O)[C@H](Cc3ccccc3)NC(=O)[C@H](Cc3ccccc3)NC(=O)[C@H](CCC(N)=O)NC1=O)C2=O
Result: 1.20

Q: # repeat for CSCC[C@@H]1NC(=O)[C@H](CC(C)C)NC(=O)CNC(=O)[C@H](Cc2ccccc2)NC(=O)[C@H](Cc2c[nH]c3ccccc23)NC(=O)[C@H](CCC(N)=O)NC1=O (cyclo(FGLMQW))
Result: -2.10

Q: # repeat for CSCC[C@@H]1NC(=O)[C@H](CC(C)C)NC(=O)[C@H](Cc2ccccc2)NC(=O)[C@H](Cc2c[nH]c3ccccc23)NC(=O)[C@H](CCC(N)=O)NC1=O (cyclo(FLMQW))
Result: -0.20
